- System: HepG2 (human liver cancer) cell line
- protocol_text: Cell Titer-Glo luminescence-based cell growth inhibition assay, HepG2
- assay_context: HepG2 cells, 72 hours incubation, spread in brackets
test_readout: IC50 (µM)

>>> print(df.to_string())
                                  compound  number
0  N.N.[Cl][Pt][Cl] [Cisplatin, cisplatin]     9.6
